These entries and their values trace back to ChEMBL document CHEMBL3286113.

assay: AUC (0 to t) in female rat at 15 mg/kg, po; assay type: ADME, organism-based; design: dose 15 mg/kg, route oral; settings: plasma
Metric: AUC(0-t)

Any idea what its AUC(0-t) is? The compound is O=C1C=CN(c2c(F)cc(N3C[C@H](CNc4ccon4)OC3=O)c(F)c2F)CC1 64700 ng·h/mL

----------
test: AUC (0 to 24 hrs) in female rat at 200 mg/kg/day, po bid administered for 4 weeks; type: ADME, organism-based; set-up: dose 200 mg/kg/day, time < 24 hr, route oral; settings: plasma
Metric: AUC at 24 h (µg·h/mL)
Answers are plain numbers, in µg·h/mL.

Field request: AUC at 24 h | item: O=C1C=CN(c2c(F)cc(N3C[C@H](CNc4ccon4)OC3=O)c(F)c2F)CC1 626

----------
test: Half life in po dosed rat; assay type: ADME, organism-based; conditions: in vivo
Metric: half-life (min)
One number for each entry, in min.

Suppose we examine the molecule O=C1C=CN(c2c(F)cc(N3C[C@H](CNc4ccon4)OC3=O)c(F)c2F)CC1 [CONTEZOLID] ; what half-life value has been reported? 90

----------
experiment: Oral bioavailability in rat; type: ADME, organism-based; conditions: in vivo
Metric: bioavailability (%)
Answers are plain numbers, in %.

Requested read-out: bioavailability. Entry: O=C1C=CN(c2c(F)cc(N3C[C@H](CNc4ccon4)OC3=O)c(F)c2F)CC1 109

----------
assay: Tmax in human at 600 mg, po administered as single dose with meal measured on day 1; assay type: ADME, organism-based; conditions: in vivo
Metric: Tmax (min)
Give bare numbers, in min.

Item O=C1C=CN(c2c(F)cc(N3C[C@H](CNc4ccon4)OC3=O)c(F)c2F)CC1 has what recorded Tmax? 39

----------
assay: AUC (0 to 24 hrs) in female rat at 100 mg/kg/day, po bid administered for 4 weeks; type: ADME, organism-based; design: time < 24 hr, dose 100 mg/kg/day, route oral; conditions: plasma
Metric: AUC at 24 h (µg·h/mL)
Numbers only, in µg·h/mL.

Could you share which AUC at 24 h value was measured for O=C1C=CN(c2c(F)cc(N3C[C@H](CNc4ccon4)OC3=O)c(F)c2F)CC1 [CONTEZOLID] ? 319

----------
assay: Half life in female rat at 15 mg/kg, po; type: ADME, organism-based; set-up: dose 15 mg/kg, route oral; conditions: in vivo
Metric: half-life

I have this compound here, O=C1C=CN(c2c(F)cc(N3C[C@H](CNc4ccon4)OC3=O)c(F)c2F)CC1 [CONTEZOLID] , and I need its recorded half-life. 1.47 h

----------
molecular target: MAO-A (Homo sapiens, UniProt P21397); test: Ratio of compound IC50 to linezolid IC50 for human recombinant MAO-A by luciferin-based luminescence assay; format: ADME; settings: read-out: Ratio IC50
Sequence (P21397 whole entry): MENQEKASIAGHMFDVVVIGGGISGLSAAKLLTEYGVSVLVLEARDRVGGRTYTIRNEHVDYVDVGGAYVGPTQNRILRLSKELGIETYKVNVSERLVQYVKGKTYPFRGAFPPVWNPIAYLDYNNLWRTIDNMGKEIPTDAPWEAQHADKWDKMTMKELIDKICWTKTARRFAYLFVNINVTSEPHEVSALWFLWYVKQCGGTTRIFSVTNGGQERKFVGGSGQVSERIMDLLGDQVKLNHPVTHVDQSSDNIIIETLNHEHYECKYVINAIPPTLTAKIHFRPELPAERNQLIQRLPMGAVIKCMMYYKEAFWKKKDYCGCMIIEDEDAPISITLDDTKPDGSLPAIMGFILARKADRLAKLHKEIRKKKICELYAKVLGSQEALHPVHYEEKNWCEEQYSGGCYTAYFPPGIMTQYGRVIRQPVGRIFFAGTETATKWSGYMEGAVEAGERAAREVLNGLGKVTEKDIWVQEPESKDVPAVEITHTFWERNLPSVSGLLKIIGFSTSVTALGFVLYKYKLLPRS
Metric: selectivity ratio
Answers are plain numbers.

# query: selectivity ratio of entry O=C1C=CN(c2c(F)cc(N3C[C@H](CNc4ccon4)OC3=O)c(F)c2F)CC1 3

----------
assay: AUC (0 to 24 hrs) in human at 800 mg, po administered as single dose with meal measured on day 15; format: ADME, organism-based; set-up: dose 800 mg, time < 24 hr, route oral; conditions: plasma
Metric: AUC(0-t) at 24 h (ng·h/mL)
One number for each entry, in ng·h/mL.

Suppose we examine the compound O=C1C=CN(c2c(F)cc(N3C[C@H](CNc4ccon4)OC3=O)c(F)c2F)CC1 ; what AUC(0-t) at 24 h value has been reported? 90400
